# koff per entry
Biological target: T1, hGITR.mFc (human)
T1 construct: soluble dimeric construct with mouse Fc; also called dimeric human GITR
T1 chain: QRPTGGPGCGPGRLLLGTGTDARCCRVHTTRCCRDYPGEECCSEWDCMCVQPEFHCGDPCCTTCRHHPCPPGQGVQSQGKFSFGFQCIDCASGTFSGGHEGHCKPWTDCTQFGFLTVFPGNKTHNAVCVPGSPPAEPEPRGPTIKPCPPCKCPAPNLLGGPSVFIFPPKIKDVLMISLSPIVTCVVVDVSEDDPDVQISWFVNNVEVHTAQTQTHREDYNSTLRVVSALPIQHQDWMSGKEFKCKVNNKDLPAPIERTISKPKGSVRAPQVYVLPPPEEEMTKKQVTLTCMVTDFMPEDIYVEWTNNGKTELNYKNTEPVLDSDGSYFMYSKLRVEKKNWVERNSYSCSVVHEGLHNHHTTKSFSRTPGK
Experiment: SPR 37C, mAb capture
// unit must come after the numeric part

BINDER: H1H14520P (antibody, human IgG1, V domains shown, human IgG1 (H1H)) VH: QVQLVESGGGVVQPGRSLRLSCAASGFTFSSFGMHWVRQAPGKGLEWVAVISYDGRNRYYADSVKGRFTISRDNSKNTLYLQMNSLSAEDTAMFYCAKDGFGNSFDYWGQGTLVTVSS VL: DVVMTQSPLSLPVTLGQPASISCRSSQSLLYSDGNTYLTWFQQRPGQSPRRLIYKVSNRDSGVPDRFSGSGSGTDFTLTISRVEAEDVGIYYCMQGTHWPWTFGQGTKVEIK
koff: 0.000583 s⁻¹
--
BINDER: H4H14508P (antibody, human IgG4, V domains shown, human IgG4 (H4H)) VH: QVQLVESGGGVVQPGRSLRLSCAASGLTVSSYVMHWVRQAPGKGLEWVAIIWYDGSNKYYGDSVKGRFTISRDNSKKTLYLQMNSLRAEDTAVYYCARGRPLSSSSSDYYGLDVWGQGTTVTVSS VL: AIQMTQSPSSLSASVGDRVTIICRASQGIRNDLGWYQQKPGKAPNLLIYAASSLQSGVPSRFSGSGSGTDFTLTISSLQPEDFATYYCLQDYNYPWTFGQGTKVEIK
koff: 0.000719 s⁻¹
--
BINDER: H4H14476P (antibody, human IgG4, V domains shown, human IgG4 (H4H)) VH: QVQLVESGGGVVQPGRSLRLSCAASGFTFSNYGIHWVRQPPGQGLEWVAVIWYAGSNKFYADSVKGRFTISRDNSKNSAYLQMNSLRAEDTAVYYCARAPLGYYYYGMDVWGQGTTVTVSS VL: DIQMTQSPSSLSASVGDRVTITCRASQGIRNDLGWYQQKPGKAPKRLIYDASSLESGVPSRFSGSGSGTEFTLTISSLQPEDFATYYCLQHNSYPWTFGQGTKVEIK
koff: 0.000269 s⁻¹

**Q:** Which koff is reported for this binder? H4H14521P (antibody, human IgG4, V domains shown, human IgG4 (H4H)) VH: EVQLVESGGGLVQPGGSLRLSCAASGFTFRVYEMNWVRQAPGKGLEWISYIGSSGFTIYYADSVKGRFTISRDNAKNSLFLQLNSLRAEDTAVYYCARGWNDGVPNYLGMDVWGQGTTVTVSS VL: DIQMTQSPSSLSASVGDRVTITCQASQDINKYLNWYQQKPGKAPKLLIYDASNLETGVPSRFSGSGSGTDFTFTISSLQPEDIARYHCQQYDKIPLTFGGGTKVEIK
**A:** 0.000479 s⁻¹

**Q:** Which koff is reported for this binder? H4H14530P (antibody, human IgG4, V domains shown, human IgG4 (H4H)) VH: QLQLQESGPGLVKPSETLSLTCTVSGGSISSTNHYWGWIRQPPGKGLEWIGNVYYIGNAYYNPSLKTGVTFSVDTSKNQFSLNLRSVTAADTAMYYCARLSNWNFLDLWGQGTLVTVSS VL: EIVMTQSPATLSVSPGERATLSCRASQSISSNLAWYQQKPGQAPRLLIYGASTRATGIPARFSGSGSGTEFTLTISSLQSEDFAVYYCQQFNNWLSFGGGTKVEIK
**A:** 0.000185 s⁻¹
